Exercise: state measured inhibition at 20 µM for each of the molecules provided.
system_name: KRas G12D mutant protein (Homo sapiens (Human), UniProt P01116, G12D)
Sequence (P01116-2 other isoform, or with tags, fused parts or gaps G12D): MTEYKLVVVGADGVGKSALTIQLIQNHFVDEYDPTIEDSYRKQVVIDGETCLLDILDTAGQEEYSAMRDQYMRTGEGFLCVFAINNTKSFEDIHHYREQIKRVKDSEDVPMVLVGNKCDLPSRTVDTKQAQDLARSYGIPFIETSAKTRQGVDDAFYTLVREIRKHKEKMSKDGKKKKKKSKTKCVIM
method_description: Ras GTP binding domain inhibition assay (labeled GTP)
condition: 20 μM compound; KRas G12D; read-out: % Inhibition at 20 μM of K-Ras mutant and wild-type protein, KRas G12D

[[record]]
molecule = "CC(C)COc1ccc(-c2c(-c3ccccc3)sc3c(O)nc(-c4nccn4C)nc23)cn1 [drawing 3587]"
result_type = "inhibition at 20 µM"
experimental_result = "51 to 75%"

[[record]]
molecule = "COCCNc1nc(-c2ccncn2)nc2sc(-c3ccccc3)c(-c3ccccc3)c12 [drawing 3574]"
result_type = "inhibition at 20 µM"
experimental_result = "0%"

[[record]]
molecule = "COC1CCN(c2nc(-c3nccn3C)nc3sc(-c4ccccc4)c(-c4ccccc4)c23)C1 (stereo not drawn) [drawing 3571]"
result_type = "inhibition at 20 µM"
experimental_result = "51 to 75%"

[[record]]
molecule = "Cn1ccnc1-c1nc(O)c2scc(-c3ccc(C(C)(C)C)cc3)c2n1 [drawing 3619]"
result_type = "inhibition at 20 µM"
experimental_result = "1 to 25%"

[[record]]
molecule = "Cc1sc2c(O)nc(-c3nccn3C)nc2c1-c1ccc(OC(C)C)c(F)c1 [drawing 3610]"
result_type = "inhibition at 20 µM"
experimental_result = "51 to 75%"


Fill in inhibition at 20 µM for record Cc1sc2c(O)nc(-c3nccn3C)nc2c1-c1cccc(C(F)(F)F)c1 [drawing 3599] 1 to 25%

----------
Exercise: state measured inhibition at 20 µM for each of the compounds provided.
system_name: KRas G12D/Q61H double mutant (Homo sapiens (Human), UniProt P01116, G12D/Q61H)
Sequence (P01116-2 other isoform, or with tags, fused parts or gaps G12D/Q61H): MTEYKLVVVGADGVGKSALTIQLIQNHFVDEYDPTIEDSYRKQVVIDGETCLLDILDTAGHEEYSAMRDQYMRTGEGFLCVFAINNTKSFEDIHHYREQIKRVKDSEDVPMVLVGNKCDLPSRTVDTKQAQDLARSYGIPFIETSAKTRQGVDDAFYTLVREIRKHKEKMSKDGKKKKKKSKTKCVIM
method_description: Ras GTP binding domain inhibition assay (labeled GTP)
condition: at 20 μM; read-out: KRas G12D Q61H % Inh.

[[record]]
compound = "Cc1sc2c(N)nc(-c3ccccn3)nc2c1Br [drawing 3765]"
result_type = "inhibition at 20 µM"
experimental_result = "25 to 50%"


The following compounds each have a reported value; give each one's inhibition at 20 µM.
1. Cc1sc2c(O)nc(-c3ccccn3)nc2c1-c1ccccc1Cl [drawing 3833]
2. COc1c(O)nc(-c2ccccn2)nc1Oc1cccc(C(F)(F)F)c1 [drawing 3875]
3. COCCCCNC(=O)c1csc2nc(-c3ccccn3)nc(N3CCS(=O)(=O)CC3)c12 [drawing 3698]
4. O=C(c1csc2c(O)nc(-c3ccccn3)nc12)N1CCNC(Cc2ccc(F)cc2)C1 (stereo not shown) [drawing 3703]

["51 to 75%", "51 to 75%", "1 to 25%", "51 to 75%"]

The following compounds each have a reported value; give each one's inhibition at 20 µM.
1. Oc1nc(-c2ccccn2)nc2c(-c3cc(F)cc(F)c3)csc12 [drawing 3772]
2. Oc1nc(-c2ccccn2)nc2c(C3CC3)csc12 [drawing 3836]
3. Oc1nc(-c2ccccn2)nc2c(-c3ccc(OC4CCOCC4)cc3)csc12 [drawing 3739]
4. CC(c1ccccc1)N1CCN(C(=O)c2csc3c(O)nc(-c4ccccn4)nc23)CC1 (stereo not shown) [drawing 3693]
5. Oc1nc(-c2ccccn2)nc2c1c(-c1ccccc1)nn2-c1ccccn1 [drawing 3857]

1. 51 to 75%
2. 25 to 50%
3. 25 to 50%
4. 51 to 75%
5. 51 to 75%

----------
Test system: MAPK phosphorylation in PANC-1 pancreatic cancer cell line
method_description: MAPK cell-based phosphorylation assay (cell-direct ELISA, EGF stimulation)
condition: Homo sapiens
result_type: IC50

Look over these answered cases.
[[record]]
compound = "Oc1nc(-c2ccccn2)nc2c(-c3cccc4c3OCO4)csc12 [drawing 1193]"
experimental_result = "< 2 µM"

[[record]]
compound = "Oc1nc(-c2ccccn2)nc2c(-c3ccc(F)cc3F)csc12 [drawing 1210]"
experimental_result = "2 to 10 µM"

[[record]]
compound = "Oc1nc(-c2ccccn2)nc2c(-c3ccsc3)csc12 [drawing 1214]"
experimental_result = "< 2 µM"

[[record]]
compound = "O=C(c1csc2c(O)nc(-c3ccccn3)nc12)N1CCN(c2ccccc2)CC1 [drawing 1068]"
experimental_result = "2 to 10 µM"

[[record]]
compound = "COc1ccnc(-c2nc(O)c3c(Br)csc3n2)c1 [drawing 1133]"
experimental_result = "2 to 10 µM"


Enter measured IC50, system MAPK phosphorylation in PANC-1 pancreatic cancer cell line, for the compound shown: O=C(c1csc2c(O)nc(-c3ccccn3)nc12)N1CCOC(c2cccc(F)c2)C1 (stereo not drawn) [drawing 1128] > 30 µM

----------
system_name: KRas G12D/Q61H double mutant (Homo sapiens (Human), UniProt P01116, G12D/Q61H)
method_description: Ras GTP binding domain inhibition assay (labeled GTP)
condition: 20 μM compound; read-out: % Inhibition at 20 μM KRas G12D Q61H
result_type: inhibition at 20 µM

Look over these answered cases.
[[record]]
compound = "O=C(c1csc2c(O)nc(-c3ccccn3)nc12)N1CCNC(c2ccc(F)cc2)C1 (centres unmarked) [drawing 2807]"
system_name = "KRas G12D/Q61H double mutant (Homo sapiens (Human), UniProt P01116, G12D/Q61H)"
result_type = "inhibition at 20 µM"
experimental_result = "1 to 25%"

[[record]]
compound = "CN(C(=O)c1ccc(COc2ccc(Br)cc2)o1)C1CCS(=O)(=O)C1 (centres unmarked)"
system_name = "KRas G12D/Q61H double mutant (Homo sapiens (Human), UniProt P01116, G12D/Q61H)"
result_type = "inhibition at 20 µM"
experimental_result = "1 to 25%"

[[record]]
compound = "CCN(C(=O)c1ccc(COc2ccccc2F)o1)c1ccccc1C"
system_name = "KRas G12D/Q61H double mutant (Homo sapiens (Human), UniProt P01116, G12D/Q61H)"
result_type = "inhibition at 20 µM"
experimental_result = "1 to 25%"


The following compounds each have a reported value; give each one's inhibition at 20 µM.
1. CN(Cc1nnc(-c2ccccc2Cl)o1)Cc1ccccc1N1CCCC1
2. O=S(=O)(NC(c1ccccc1)c1ccccn1)c1cc(C(F)(F)F)ccc1Cl (centres unmarked)
3. COc1cnc(CN)[nH]c1=O [drawing 2801]

["1 to 25%", "25 to 50%", "25 to 50%"]

----------
system_name: KRas G12C/Q61H double mutant (Homo sapiens (Human), UniProt P01116, G12C/Q61H)
Sequence (P01116-2 other isoform, or with tags, fused parts or gaps G12C/Q61H): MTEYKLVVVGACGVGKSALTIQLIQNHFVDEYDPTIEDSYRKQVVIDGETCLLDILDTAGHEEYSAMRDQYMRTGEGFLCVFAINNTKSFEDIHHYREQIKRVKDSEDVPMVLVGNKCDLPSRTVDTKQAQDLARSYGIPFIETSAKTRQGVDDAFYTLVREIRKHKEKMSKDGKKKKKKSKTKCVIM
method_description: Ras GTP binding domain inhibition assay (labeled GTP)
condition: 20 μM compound; read-out: % Inhibition at 20 μM KRas G12C Q61H
Exercise: state measured inhibition at 20 µM for each of the molecules provided.

[[record]]
molecule = "O=C(CCn1ccnc1)Nc1nc(-c2ccccn2)nc2sccc12 [drawing 2889]"
experimental_result = "51 to 75%"


The following molecules each have a reported value; give each one's inhibition at 20 µM.
1. O=C(NCCc1ccc(O)c(O)c1)c1csc2nc(-c3ccccn3)nc(N3CCOCC3)c12 [drawing 2785]
2. O=C(COCc1cccnc1)Nc1nc(-c2ccccn2)nc2sccc12 [drawing 2829]
3. Nc1nc(-c2ccccn2)nc2c(Br)csc12 [drawing 2892]
4. O=C(c1csc2c(O)nc(-c3ccccn3)nc12)N1CCN(c2ccc(F)cc2)CC1 [drawing 2754]
5. N#Cc1ccc(N2CCN(C(=O)c3csc4c(O)nc(-c5ccccn5)nc34)CC2)cc1 [drawing 2756]
6. OCC1(c2ccc(-c3csc4c(O)nc(-c5ccccn5)nc34)cc2)CC1 [drawing 2886]
7. COc1nccc(CCNC(=O)c2csc3nc(-c4ccccn4)nc(N4CCOCC4)c23)n1 [drawing 2897]
8. O=C(c1csc2c(O)nc(-c3ccccn3)nc12)N1CCOC(Cc2ccccc2)C1 (stereo not shown) [drawing 2771]

1. 25 to 50%
2. 76 to 100%
3. 1 to 25%
4. 25 to 50%
5. 51 to 75%
6. 51 to 75%
7. 25 to 50%
8. 51 to 75%

The following molecules each have a reported value; give each one's inhibition at 20 µM.
1. Oc1nc(-c2ccccn2)nc2c(-c3ccccc3OC3CCCCC3)csc12 [drawing 2866]
2. Nc1nc(-c2ccccn2)nc2c(-c3ccccc3Cl)csc12 [drawing 2835]

1. 51 to 75%
2. 1 to 25%

The following molecules each have a reported value; give each one's inhibition at 20 µM.
1. O=C(NCCc1ccnc(O)n1)c1csc2nc(-c3ccccn3)nc(N3CCOCC3)c12 [drawing 2898]
2. COCCCCN(C)C(=O)c1csc2nc(-c3ccccn3)nc(N3CCOCC3)c12 [drawing 2790]
3. CN(CCc1cccc(C#N)c1)C(=O)c1csc2nc(-c3ccccn3)nc(N3CCOCC3)c12 [drawing 2788]
4. COC(=O)c1cc2nc(-c3ccccn3)nc(O)c2s1 [drawing 2907]

1. 51 to 75%
2. 25 to 50%
3. 51 to 75%
4. 51 to 75%
